- target system: T1, human Claudin 18.2 (human, UniProt P56856-2 1-261)
- T1 construct: whole, on cells
- T1 sequence (looked up): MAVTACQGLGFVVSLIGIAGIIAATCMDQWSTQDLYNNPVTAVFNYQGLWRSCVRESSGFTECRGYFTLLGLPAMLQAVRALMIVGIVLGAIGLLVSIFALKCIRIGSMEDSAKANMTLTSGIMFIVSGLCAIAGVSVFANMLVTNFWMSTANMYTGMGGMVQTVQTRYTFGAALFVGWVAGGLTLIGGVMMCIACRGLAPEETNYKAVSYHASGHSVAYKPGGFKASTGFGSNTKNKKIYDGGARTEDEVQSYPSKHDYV
- assay: flow cytometry (iQue) on HEK293-Claudin 18.2 cells, chimeric IgG1
recorded metric: EC50

Before answering, review these 4 worked examples.
9D12 (antibody, V domains shown, also called Clone 9D12) VH: EVQLQQSGREVVRPGTSVKVSCKPSGYAFTNYLIDWVKQRPGQGLEWIGGINPGSGDTVYNERFKDKATLTADKSSSSANMQLSSLTSDDSAVYFCARRVRGNSFDSWGQGTLVTVSA VL: DIVMTQSPSSLTVTAGQKVTMSCKSSQSLLNSGNQKNYLTWYQQKPGQPPKLLIYWASTRESGVPDRFTGSGSGKDFTLTISSVQAEDLAVFYCQNNYFYPLTFGAGTKLELK
6.78 nM
9A8 (antibody, V domains shown, also called Clone 9A8) VH: QVQLQQSGREVVRPGTSVKVSCKPSGYAFTNYLIDWVKQRPGQGLEWIGGINPGSGDTVYNEKFKAKATLTADKSSMTANMQLSSLTSDDSAVYFCARRVRGNSFDSWGQGTLVTVSA VL: DIQMTQSPSSLTVTAGEKVTMSCKSSQSLLNSGNQRNYLTWYQQKTGQPPKLLIYWASTRESGVPDRFTGSGSGTDFTLTINSVQAEDLAVYYCQNNYYYPLTFGAGTKLEIK
0.21 nM
14H11 (antibody, V domains shown, also called Clone 14H11) VH: EVQLVESGGGLVKPGGSLKLSCAVSGFTINNYGMSWVRQTPEKRLEWVATIIGGGSSTYYPDSLKGRFTISRDNAKNNLYLQMSSLRSEDTALYYCVRLYFGNSFAYWGQGTLVTVSA VL: DIVMTQSPSSLTVTAGEKVTVSCKSSQSLSNSGNQRNYLTWYQQKPGQPPKLLIYWASTRESGVPDRFTGSGSGTDFTLTISSVQAEDLAVYYCQNNYFYPLTFGAGTKLELK
0.22 nM
8C11 (antibody, V domains shown, also called Clone 8C11) VH: QVQLQQSGAELVKPGASVKLSCKASGYTFTTFGINWVRQRPEQGLEWIGWIFPGDGSIKYNEKFKGKATLTTDKSSSTAYMQISSLTSEDSAVYFCARFYYGNSFVSWGQGTLVTVSA VL: DIVMTQSPSSLAVTAGEKVTMTCKSSQSLLNSGNQKNYLTWYQQRPGQPPKLLLYWASTRESGVPDRFTGSGSGTDFALTITSVQAEDLAVYYCQNDYTYPFTFGSGTKLEIK
0.23 nM

# next binder below
For record 18A9 (antibody, V domains shown, also called Clone 18A9; 18A9 Chimera) VH: QVQLQQSGREVVRPGTSVKVSCKPSGYAFTNYLIDWVKQRPGQGLEWIGGINPGSGDTVYNEKFKAKATLTADKSSMTANMQLSSLTSDDSAVYFCARRVRGNSFDSWGQGTLVTVSA VL: DIVMSQSPSSLTVTAGEKVTMSCKSSQSLLNSGNQKNYLTWYQQKPGQPPKLLIYWASTRESGVPDRFTGSGSGKDFTLTISSVQAEDLALYYCQNNYFYPLTFGAGTKLELK the listed EC50 is 0.31 nM
